Where do these numbers come from? They come from a melting point compilation (Tetko et al.).

Assign melting point to each entry below.

Prompt: State its melting point: `CCCCn1c(N)c(NCc2ccccc2OC)c(=O)[nH]c1=O`
Response: 198 to 200 °C

Prompt: Item `CS(=O)(=O)c1ccc(Br)cc1N` : provide melting point
Response: 109 to 111 °C

Prompt: // Input: `O=C(CCl)N1CCCCCCC1` . Output its melting point only.
Response: 66 to 68 °C

Prompt: Give the value of melting point reported for the following: `C=CCn1c(C)cc(C(=O)CCl)c1C`
Response: 36 to 40 °C

Prompt: Determine from records and report melting point for `COCCNC(=S)NN`
Response: 85 to 87 °C

Prompt: For the molecule `Cc1c(N)cccc1C(N)=O` , give its measured melting point value.
Response: 173 to 175 °C

Prompt: Report measured melting point; entry is `N#CCC(=O)Nc1cccc(Cl)c1`
Response: 139 to 141 °C

Prompt: Specify reported melting point for the molecule shown: CC(N)c1nn[nH]n1 (stereo not given)
Response: 263 to 265 °C

Prompt: Consider the molecule O=C(O)C(Cc1ccccc1)NS(=O)(=O)c1ccccc1F (stereo not given) and give its recorded melting point.
Response: 258 to 260 °C

Prompt: Query melting point for `CC(C)c1cc(C(=O)O)nn1-c1ccccc1`
Response: 137 to 139 °C

Prompt: Consider the molecule `Cc1nn(-c2ccc(Cl)cc2)c2sc(C(=O)O)cc12` and give its recorded melting point.
Response: 230 to 238 °C

Prompt: Specify melting point for CC(SCc1nc2ccccc2c(=O)[nH]1)C(=O)O (stereo not given) and stop.
Response: 204 to 206 °C

Prompt: Recall and state the measured melting point for NC(C(=O)O)c1ccc2ccccc2c1 (stereo not given) .
Response: 251 to 253 °C

Prompt: Hello, please tell me recorded melting point for this one: `CNc1ccc(Br)cc1[N+](=O)[O-]`
Response: 101 to 103 °C

Prompt: Output measured melting point for this item: `NC(=O)NCc1ccccc1F`
Response: 147 to 149 °C

---

Could you please report measured melting point for the items listed next?

Prompt: Fill in reported melting point for this entry: `N#Cc1cccc(COc2ccc(N)cc2Cl)c1`
Response: 112 to 114 °C

Prompt: Give melting point for `Cc1nnc(SCC(=O)O)n1Cc1ccccc1`
Response: 167 to 169 °C

Prompt: Report melting point for `O=C(O)c1ccc(CN2CCC(CO)CC2)cc1`
Response: 219 to 221 °C

Prompt: Using known records, supply melting point for `COc1cccc(NCCC(=O)O)c1`
Response: 87 to 89 °C

Prompt: Query melting point for `CC(C)(C)c1ccc(Oc2ccc(C=O)cc2[N+](=O)[O-])cc1`
Response: 156 to 158 °C

Prompt: Indicate its recorded melting point; the compound in question is CC(C)C(Br)C(=O)NC(C)(C)C (stereo not drawn)
Response: 135 to 137 °C

Prompt: Return value of melting point for input `O=c1cc(CO)occ1OCc1ccccc1` , no commentary.
Response: 96 to 98 °C

Prompt: Give recorded melting point. `Cc1occc1-c1nnc(S)n1C`
Response: 118 to 120 °C

Prompt: Please report melting point for the following compound: `COc1ccccc1S(N)(=O)=O`
Response: 169 to 171 °C

Prompt: Note down melting point recorded for `Cc1c(NS(=O)(=O)c2ccc(N)c(N)c2)c(=O)n(-c2ccccc2)n1C`
Response: 233 to 235 °C

Prompt: Give the measured melting point for `Nc1ccc2[nH]c3c(c2c1)CCCC3`
Response: 174 to 176 °C

Prompt: Give melting point for the following compound: `CCC(=O)Nc1cccc(CN)c1`
Response: 56 to 58 °C

Prompt: Tell me melting point reported for c1nc(C2CCCCN2)n[nH]1 (stereo not drawn)
Response: 104 to 106 °C

Prompt: Retrieve melting point measured for `Nc1ccc(CNC(=O)c2ccc(C(F)(F)F)cc2)cc1` and print it.
Response: 163 to 165 °C

Prompt: Using known records, supply melting point for Cn1ccnc1C(O)C(F)(F)F (stereo not drawn)
Response: 135 to 137 °C

Prompt: Give melting point for the following compound: `NC(=O)COc1cccc(C(=O)O)c1`
Response: 223 to 225 °C

Prompt: Provide only the value of recorded melting point for `CC(C)C(=O)c1ccc2[nH]c(=O)oc2c1`
Response: 188 to 190 °C

Prompt: Answer with reported melting point of `O=C1NCc2ccc(F)cc21`
Response: 203 to 205 °C

Prompt: Quote melting point reported for CC(C)(C)C1CCc2nc(N)sc2C1 (stereo not drawn) please.
Response: 131 to 133 °C

Prompt: Find the measured melting point of CC(Cl)C(=O)N1CCN(C(=O)OC(C)(C)C)CC1 (stereo not drawn) and report it.
Response: 115 to 117 °C

Prompt: Find the measured melting point of `Cc1cc(C(=O)NCC(=O)O)ccc1[N+](=O)[O-]` and report it.
Response: 216 to 218 °C

Prompt: Output measured melting point for this item: `O=C(CCl)Nc1ccc(F)c(F)c1`
Response: 106 to 108 °C

Prompt: Write down melting point measured for item CC1COc2ccccc2C1O (stereo not drawn)
Response: 95 to 97 °C

Prompt: Supply recorded melting point for CC(C(=O)O)c1ccc2ccccc2c1 (stereo not drawn) here.
Response: 120 to 122 °C

Prompt: Report melting point, nothing else, for this compound: `O=C(O)c1cnn(-c2ccc(Br)cc2)c1`
Response: 254 to 256 °C

Prompt: Specify melting point for `OCc1csc(-c2ccccn2)n1` and stop.
Response: 95 to 97 °C

Prompt: Report melting point for O=C(O)C1CCCN1C(=O)c1ccc2[nH]nnc2c1 (stereo not drawn)
Response: 223 to 225 °C

Prompt: Consider the compound `COc1cc(Cl)c(S(=O)(=O)Cl)cc1Cl` . State its measured melting point.
Response: 76 to 78 °C

Prompt: Tell me its melting point given `CS(=O)(=O)c1ccc(NC(=O)OCC(F)(F)F)cc1` as the entry.
Response: 175 to 177 °C

Prompt: State its melting point: Cc1cc(NC(=O)C(C)Cl)on1 (stereo not drawn)
Response: 78 to 80 °C

Prompt: Assign melting point to the following record: `O=C(O)c1cc(F)cc2nccnc12`
Response: 219 to 221 °C

Prompt: State its melting point: `CC(=O)Nc1cc(C)c(C)cc1[N+](=O)[O-]`
Response: 189 to 191 °C

Prompt: Complete the entry with melting point for `COc1ccc(N)cc1Br`
Response: 58 to 60 °C

Prompt: Using the record for `NCCNC(=O)c1ccccc1O` , state its measured melting point.
Response: 38 to 40 °C

Prompt: Name the recorded melting point of the item Cc1cc2c(N3CCCC3C(=O)O)ncnc2s1 (stereo not drawn) in your answer.
Response: 129 to 131 °C

Prompt: Given the compound `O=C(O)C1CCN(c2ccc3nnnn3n2)CC1` , write its reported melting point.
Response: 199 to 201 °C

Prompt: Entry `Cc1cc(C)c(S(=O)(=O)NCCC(=O)O)c(C)c1` needs its melting point filled in; supply it.
Response: 118 to 120 °C

Prompt: Determine from records and report melting point for `CC(C)(c1ccccc1)c1nnc(N)s1`
Response: 149 to 151 °C

Prompt: Quick one: give measured melting point for `CC(=O)c1c(C)oc2nc(Br)nn12`
Response: 118 to 120 °C

Prompt: Please give measured melting point of the following entry: CC1Oc2ccc(N)cc2NC1=O (stereo not drawn)
Response: 198 to 200 °C

Prompt: Give reported melting point value for `CC(=O)c1cccc(NC(=O)CCl)c1`
Response: 112 to 114 °C

Prompt: Return reported melting point. Input compound: `Cc1ccc(NC(=O)CCl)cc1S(=O)(=O)N(C)C`
Response: 74 to 76 °C

Prompt: Specify measured melting point for `O=C(O)CCc1ncc(-c2ccco2)o1` .
Response: 140 to 142 °C

Prompt: Return value of melting point for input `O=c1c2ccccc2nc(Cl)n1-c1ccccc1` , no commentary.
Response: 127 to 129 °C

Prompt: Indicate the recorded melting point value for this compound: `O=C(CCl)N(Cc1nnc(-c2ccc(Cl)cc2)o1)C1CC1`
Response: 102 to 104 °C

Prompt: Tell me its melting point given `O=C(O)CCCC(=O)c1ccc(Cl)c(Cl)c1` as the entry.
Response: 140 to 142 °C

Prompt: Given `CC(C)(C)C(N)=NO` , respond with its melting point.
Response: 93 to 95 °C

Prompt: // fetch melting point given entry `COC(=O)c1ccc(-n2c(C)cc(C(=O)CCl)c2C)cc1`
Response: 157 to 159 °C

---

Observable: melting point

Prompt: State its melting point for this molecule: CC(Cl)C(=O)N1CCSc2ccccc21 (configuration not stated)
Response: 81 to 83 °C

Prompt: Identify measured melting point corresponding to `N#CC(=Cc1ccc2c(c1)OCO2)C(=O)O`
Response: 205 to 207 °C

Prompt: Name the recorded melting point of the molecule listed here: `CN(C)C(=O)Cn1cc(Br)cn1`
Response: 163 to 165 °C

Prompt: Specify measured melting point for `Cc1ccc(NC(=O)CCl)cc1S(=O)(=O)N1CCCCCC1` .
Response: 74 to 76 °C

Prompt: For the molecule `O=C1CCC(c2ccc(F)cc2)=NN1` , report melting point.
Response: 193 to 195 °C

Prompt: Please list melting point recorded for the molecule `CC(=O)Nc1c[nH]c(C)c1C(=O)O`
Response: 183 to 185 °C

Prompt: Fill in reported melting point for this entry: `CS(=O)(=O)Cc1ccc(Cl)cc1N`
Response: 140 to 142 °C

Prompt: Answer with the recorded melting point for the molecule listed here: `N#CCCCn1cc(C(=O)O)nn1`
Response: 164 to 166 °C

Prompt: Given `CC(C)(C)c1noc(C(N2CCOCC2)N2CCOCC2)n1` , respond with its melting point.
Response: 80 to 82 °C

Prompt: Name the recorded melting point of the item `O=C(O)c1ccc(NC(=O)c2cccs2)cc1` in your answer.
Response: 227 to 229 °C

Prompt: Read off the recorded melting point for `NCCCc1nc2ccccc2[nH]1`
Response: 210 to 212 °C

Prompt: Assign melting point to the following record: `NNC(=O)C(F)(F)Oc1ccccc1`
Response: 76 to 78 °C

Prompt: Provide measured melting point value, entry: `CCN1C(=N)C(C)(C)N(C)C1=O`
Response: 88 to 90 °C

Prompt: Output melting point of `NS(=O)(=O)N1CCCC1`
Response: 96 to 98 °C

Prompt: Recall and state the measured melting point for `CCOc1cc(C=O)cc(Br)c1OC` .
Response: 52 to 54 °C

Prompt: Identify the reported melting point for the following entry. Cc1ccc(C2CC2C(=O)O)s1 (configuration not stated)
Response: 45 to 47 °C

Prompt: Give the reported melting point for this molecule. `NS(=O)(=O)CCCF`
Response: 45 to 47 °C

Prompt: Name the recorded melting point of the item `CCOc1ccccc1C(=O)NCC(=O)O` in your answer.
Response: 166 to 168 °C

Prompt: Find the measured melting point of `COC(=O)c1coc(C(=O)CCl)c1` and report it.
Response: 97 to 99 °C

Prompt: Respond only with melting point recorded for `Nc1sc2c(c1-c1nc3ccccc3[nH]1)CCCC2`
Response: 175 to 177 °C

Prompt: Supply measured melting point of CC(N)c1ccc(-n2cccn2)cc1 (configuration not stated) in your reply.
Response: 48 to 50 °C

Prompt: Give reported melting point value for `Cc1nn(CC(F)(F)F)cc1C(=O)O`
Response: 119 to 121 °C

Prompt: // fetch melting point given entry `O=C(O)CCCCCc1cccs1`
Response: 43 to 45 °C

Prompt: Specify measured melting point for `COc1ccc(C(N)=O)c(O)c1` .
Response: 145 to 147 °C

Prompt: Hello, please tell me recorded melting point for this one: COc1cc([N+](=O)[O-])ccc1NC(=O)C(C)Cl (configuration not stated)
Response: 85 to 87 °C

Prompt: Consider the molecule `Nc1nsc(N2CCNCC2)n1` and give its recorded melting point.
Response: 193 to 195 °C

Prompt: Look up melting point of `CC(C)c1cc(Br)cc([N+](=O)[O-])c1N` and report it.
Response: 39 to 41 °C

Prompt: Query melting point for `CC(C)(C)OC(=O)N1CCC(C(=O)NN)CC1`
Response: 98 to 100 °C

Prompt: Look up and report measured melting point for this entry: `O=C(O)C=Cc1cn(-c2ccccc2)nc1-c1ccc(F)cc1`
Response: 229 to 231 °C

Prompt: Output measured melting point for this item: `CN1CC(=O)Nc2cnccc21`
Response: 274 to 276 °C

Prompt: Assign melting point to the following record: `COc1ccc(S(=O)(=O)NC(C)(C)C)cc1N`
Response: 119 to 121 °C

Prompt: Fill in reported melting point for this entry: `COc1nc2ccccc2cc1/C=C/C(=O)O`
Response: 219 to 221 °C

Prompt: Give melting point for `O=C(O)c1cccc(OCc2cccnc2)c1`
Response: 195 to 197 °C

Prompt: Annotate the molecule `O=C(O)COc1cccc2cccnc12` with its measured melting point.
Response: 125 to 127 °C

Prompt: Specify measured melting point for `CC(C)Cn1c(N)c(C(=O)CCl)c(=O)n(C)c1=O` .
Response: 104 to 106 °C

Prompt: Return the recorded melting point value; entry: `N#Cc1cnn(-c2cccc(C(=O)O)c2)c1N`
Response: 286 to 288 °C

Prompt: Give me measured melting point, please, for this molecule: `CC(=O)c1ccc(S(=O)(=O)NCc2ccco2)cc1`
Response: 107 to 109 °C

Prompt: Please indicate melting point recorded for `Nc1ccccc1CN1CCc2ccccc21`
Response: 75 to 77 °C

Prompt: Write down melting point measured for item `COc1cc(CCC(=O)O)ccc1OCC(F)(F)F`
Response: 103 to 105 °C

Prompt: Indicate the recorded melting point value for this molecule: `COc1cc(C(C)=O)ccc1SC`
Response: 92 to 94 °C

Prompt: Look up and report measured melting point for this entry: `CC(C)NC(=O)Nc1cccc(C(=O)O)c1`
Response: 239 to 241 °C

Prompt: Give me measured melting point, please, for this molecule: `Sc1nnc(NCc2ccccc2)s1`
Response: 146 to 148 °C

Prompt: For `Nc1nc(-c2ccc(Cl)s2)cs1` , write its melting point.
Response: 98 to 100 °C

Prompt: Return reported melting point. Input molecule: `O=C(O)C=Cc1cccc(OC2CCCCC2)c1`
Response: 96 to 98 °C

Prompt: // Input: `O=S(=O)(Cl)c1ccc(OCC(F)(F)F)cc1` . Output its melting point only.
Response: 55 to 57 °C

Prompt: Look up melting point of COC(=O)C1=NOC(C(=O)O)C1 (configuration not stated) and report it.
Response: 83 to 85 °C

Prompt: Input `N#Cc1cccc(Br)c1N=C=O` , output reported melting point.
Response: 64 to 66 °C
